System: Pseudomonas aeruginosa
Measurement description: Antibacterial activity against Pseudomonas aeruginosa at 5 to 100 ug after 18 hrs by agar disk-diffusion method
Type: functional, organism-based
Activity calls are given as the source filed them. No cut-off for these calls is given here.

# Compound, Assayed target, Activity
rows = [
    ("C[C@H](CCC(=O)NCCN(CCNC(=O)CC[C@@H](C)[C@H]1CC[C@H]2[C@@H]3CC[C@@H]4C[C@H](O)CC[C@]4(C)[C@H]3C[C@H](O)[C@]12C)CCNC(=O)CC[C@@H](C)[C@H]1CC[C@H]2[C@@H]3CC[C@@H]4C[C@H](O)CC[C@]4(C)[C@H]3C[C@H](O)[C@]12C)[C@H]1CC[C@H]2[C@@H]3CC[C@@H]4C[C@H](O)CC[C@]4(C)[C@H]3C[C@H](O)[C@]12C", "Pseudomonas aeruginosa", "inactive"),
    ("C[C@H](CCC(=O)NCCN(CCN(CCNC(=O)CC[C@@H](C)[C@H]1CC[C@H]2[C@@H]3[C@H](O)C[C@@H]4C[C@H](O)CC[C@]4(C)[C@H]3C[C@H](O)[C@]12C)C(=O)OC(C)(C)C)C(=O)OC(C)(C)C)[C@H]1CC[C@H]2[C@@H]3[C@H](O)C[C@@H]4C[C@H](O)CC[C@]4(C)[C@H]3C[C@H](O)[C@]12C", "Pseudomonas aeruginosa", "inactive"),
    ("CCCCCCCCCCCCCCCC(=O)NCCNCCNC(=O)CC[C@@H](C)[C@H]1CC[C@H]2[C@@H]3[C@H](O)C[C@@H]4C[C@H](O)CC[C@]4(C)[C@H]3C[C@H](O)[C@]12C", "Pseudomonas aeruginosa", "inactive"),
]
